Every entry's value here was drawn from the supplement of paper PMC7877785.

Assay Notes: self-splicing fitness, log relative to wild type (ln ratio); higher = more splicing; Tetrahymena group I intron in knt gene, E. coli kanamycin selection, DiMSum; sequences stand for … in CUCUCU…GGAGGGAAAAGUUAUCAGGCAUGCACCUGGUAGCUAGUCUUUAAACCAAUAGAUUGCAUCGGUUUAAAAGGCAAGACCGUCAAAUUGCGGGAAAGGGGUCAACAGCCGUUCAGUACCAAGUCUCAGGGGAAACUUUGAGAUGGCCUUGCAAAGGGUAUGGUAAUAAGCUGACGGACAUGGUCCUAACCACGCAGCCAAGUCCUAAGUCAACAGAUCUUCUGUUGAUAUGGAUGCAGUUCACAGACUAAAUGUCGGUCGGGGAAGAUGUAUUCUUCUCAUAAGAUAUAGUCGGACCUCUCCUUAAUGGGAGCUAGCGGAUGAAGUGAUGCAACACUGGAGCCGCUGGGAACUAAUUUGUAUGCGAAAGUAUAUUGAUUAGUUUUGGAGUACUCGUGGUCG;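 further: selection with 25 µg/mL kanamycin versus none on LB agar overnight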
Applied Conditions: 37 °C
self-splicing fitness (ln) values for the sequences below.
Assay Readout: self-splicing fitness (ln)

- Query Sequence: "ACCGAGCAAUAUUACGAUUA"
  Value Measured: -3.01
- Query Sequence: "CAGUAGCAAUAUUACGAACA"
  Value Measured: -2.86
- Query Sequence: "UCUAAGCAAUAUUACGGGUC"
  Value Measured: -1.16
- Query Sequence: "CGAGAGCAAUAUUACGUGGG"
  Value Measured: -1.42
- Query Sequence: "AGGUAGCAAUAUUACGUAGG"
  Value Measured: -2.71
- Query Sequence: "CGCUAGCAAUAUUACGUACC"
  Value Measured: -0.55
- Query Sequence: "CAAUAGCAAUAUUACGAGUG"
  Value Measured: -0.905
- Query Sequence: "CGAUAGCAAUAUUACGCGCU"
  Value Measured: -1.02
- Query Sequence: "UUCCAGCAAUAUUACGCCAU"
  Value Measured: -2.82
- Query Sequence: "UCCUAGCAAUAUUACGAGUA"
  Value Measured: -0.911
- Query Sequence: "UCCUAGCAAUAUUACGUGCA"
  Value Measured: -1.72
- Query Sequence: "CCGCAGCAAUAUUACGCAUA"
  Value Measured: -2.31
- Query Sequence: "GAGGAGCAAUAUUACGUAGA"
  Value Measured: -2.22
- Query Sequence: "GUUCAGCAAUAUUACGUUCC"
  Value Measured: -1.78
- Query Sequence: "CGCCAGCAAUAUUACGAGGC"
  Value Measured: -3.07
